Tested on: Aerobactin synthetase IucA (Klebsiella pneumoniae, hypervirulent)
Experiment: IucA enzyme inhibition, biochemical, LOPAC library, absorbance readout (AID 1346212);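 note: 100% = no compound wells and 0% = no enzyme wells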
Conditions: IucA enzyme assay, absorbance (OD) readout; hits give low values;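 tested at 8 µM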
Listed next: entries and their corresponding remaining activity.
The reply should contain only the number, in %.

Consider the following illustrative entries.
CC(C)C(=O)Nc1ccc([N+](=O)[O-])c(C(F)(F)F)c1
97.1
[Li+]
102
CC(C)C[C@H]1C(=O)N2CCC[C@H]2[C@]2(O)O[C@](NC(=O)[C@@H]3C=C4c5cccc6[nH]c(Br)c(c56)C[C@H]4N(C)C3)(C(C)C)C(=O)N12
108
CC(N)=NCc1cccc(CN)c1
103
Cc1cc(Cn2cnc3c2C[C@@H](C(=O)O)N(C(=O)C(c2ccccc2)c2ccccc2)C3)ccc1N
112
Cc1ccc(C(=O)O[C@H](C(=O)O)[C@@H](OC(=O)c2ccc(C)cc2)C(=O)O)cc1 (tested in a mixture with another compound)
112
CN1C(=O)CCS(=O)(=O)C1c1ccc(Cl)cc1 (stereo not given)
93.8
Cc1nc2sccn2c(=O)c1CCN1CCC(=C(c2ccccc2)c2ccc(F)cc2)CC1
123
O=C1NC(c2cccc([N+](=O)[O-])c2)=CCN1c1ccccc1O
105

Now for another entry.
Which remaining activity reading was recorded for the molecule CS(=N)(=O)CC[C@H](N)C(=O)O (stereo not given in full) ?
115

Sourced from PubChem BioAssay
